Cited source for all entries: ChEMBL document CHEMBL1143246

# assay-details: Volume of distribution at steady state in dog at 1 mg/kg, iv or 2 mg/kg, po
# condition-details: in vivo, read-out: Vdss
parameter: Vd
Value and unit, in that order.

// Vd lookup, key: CN(C)C(=O)C(=O)N(C)[C@H]1CCCCn2c1nc(C(=O)NCc1ccc(F)cc1)c(O)c2=O
0.9 L/kg

----------
# assay-details: Oral bioavailability in rat at 10 mg/kg
# Assay type: ADME, organism-based
# condition-details: in vivo
parameter: bioavailability (%)
Give just the numeric value; % need not be written.

// bioavailability lookup, key: CN(C)C(=O)C(=O)N(C)[C@H]1CCCCn2c1nc(C(=O)NCc1ccc(F)cc1)c(O)c2=O
64

----------
Parameter 'readout' = pIC50; parameter 'system' = Cytochrome P450 2D6 (Homo sapiens, UniProt P10635).
Sequence (P10635 whole entry): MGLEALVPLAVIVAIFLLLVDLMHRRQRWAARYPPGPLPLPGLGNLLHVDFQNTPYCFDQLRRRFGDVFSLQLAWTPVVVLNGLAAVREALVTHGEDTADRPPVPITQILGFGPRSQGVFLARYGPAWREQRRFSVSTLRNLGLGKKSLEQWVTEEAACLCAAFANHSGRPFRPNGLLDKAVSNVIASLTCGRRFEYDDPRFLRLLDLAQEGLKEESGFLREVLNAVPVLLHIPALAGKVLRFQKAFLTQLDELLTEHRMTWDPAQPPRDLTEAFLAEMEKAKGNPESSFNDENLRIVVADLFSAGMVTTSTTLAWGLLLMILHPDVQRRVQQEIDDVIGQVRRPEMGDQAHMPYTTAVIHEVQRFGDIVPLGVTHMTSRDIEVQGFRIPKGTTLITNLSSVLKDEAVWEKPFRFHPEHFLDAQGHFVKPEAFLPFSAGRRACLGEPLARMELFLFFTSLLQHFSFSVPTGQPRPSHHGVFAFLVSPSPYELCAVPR
pIC50: −log10 of the molar value.

// pIC50 lookup, key: CN(C)C(=O)C(=O)N(C)[C@H]1CCCCn2c1nc(C(=O)NCc1ccc(F)cc1)c(O)c2=O
< 4.00

// pIC50 lookup, key: CN(C)S(=O)(=O)N(C)[C@@H]1CCCn2c1nc(C(=O)NCc1ccc(F)cc1)c(O)c2=O
< 4.00

----------
# Species on record: Homo sapiens
# assay-details: Protein binding in human plasma
# condition-details: read-out: PPB (converted)
Consider the following compounds; for each one, report its fraction unbound.
Would you mind answering with just the numeric figure?

// fraction unbound lookup, key: CN(C(=O)CS(=O)(=O)N(C)C)[C@H]1CCCn2c1nc(C(=O)NCc1ccc(F)cc1)c(O)c2=O
0.22

// fraction unbound lookup, key: CN(C)S(=O)(=O)N(C)[C@@H]1CCCn2c1nc(C(=O)NCc1ccc(F)cc1)c(O)c2=O
0.19

// fraction unbound lookup, key: CN(C(=O)CS(=O)(=O)N(C)C)C1CCCn2c1nc(C(=O)NCc1ccc(F)cc1)c(O)c2=O (racemic)
0.19

----------
# assay-details: Half life in dog at 1 mg/kg, iv
# Format: ADME, organism-based, Canis lupus familiaris
# Set-up: dose 1 mg/kg, route intravenous
# condition-details: in vivo
parameter: half-life
Value and unit, in that order.

// half-life lookup, key: CN(C)C(=O)C(=O)N(C)[C@H]1CCCCn2c1nc(C(=O)NCc1ccc(F)cc1)c(O)c2=O
2.1 h

// half-life lookup, key: CN(C)C(=O)C(=O)N(C)[C@H]1CCCn2c1nc(C(=O)NCc1ccc(F)cc1)c(O)c2=O
1.7 h

----------
# assay-details: Plasma clearance in dog at 1 mg/kg, iv or 4 mg/kg, po
# Type: ADME, organism-based, Canis lupus familiaris
parameter: clearance (L/h/kg)
Give just the numeric value; L/h/kg need not be written.

// clearance lookup, key: CN(C)C(=O)C(=O)N(C)[C@H]1CCCn2c1nc(C(=O)NCc1ccc(F)cc1)c(O)c2=O
0.9

----------
# assay-details: Protein binding in dog plasma
# Assay type: ADME, cell-free, Canis lupus familiaris
# condition-details: read-out: PPB (converted)
Labelling field: enter class 1 if recorded fraction unbound is less than 0.2. Enter class 0 if it equals or exceeds that cut-off.

API: query returns whether the compound falls strictly under 0.2 in fraction unbound. Query: CN(C)C(=O)C(=O)N(C)[C@H]1CCCn2c1nc(C(=O)NCc1ccc(F)cc1)c(O)c2=O
class 0

API: query returns whether the compound falls strictly under 0.2 in fraction unbound. Query: CN(C(=O)CS(=O)(=O)N(C)C)[C@H]1CCCn2c1nc(C(=O)NCc1ccc(F)cc1)c(O)c2=O
class 0

API: query returns whether the compound falls strictly under 0.2 in fraction unbound. Query: CN1CCN(S(=O)(=O)N(C)[C@H]2CCCn3c2nc(C(=O)NCc2ccc(F)cc2)c(O)c3=O)CC1
class 1

API: query returns whether the compound falls strictly under 0.2 in fraction unbound. Query: CN(C)C(=O)C(=O)N(C)[C@H]1CCCCn2c1nc(C(=O)NCc1ccc(F)cc1)c(O)c2=O
class 0

API: query returns whether the compound falls strictly under 0.2 in fraction unbound. Query: CN(C)S(=O)(=O)N(C)[C@@H]1CCCn2c1nc(C(=O)NCc1ccc(F)cc1)c(O)c2=O
class 1

----------
# assay-details: Cmax in rat at 3 mg/kg, po
# Type: ADME, organism-based
# Parameters: dose 3 mg/kg, route oral
# condition-details: in vivo
parameter: Cmax (nM)
Give just the numeric value; nM need not be written.

// Cmax lookup, key: CN(C)C(=O)C(=O)N(C)[C@H]1CCCn2c1nc(C(=O)NCc1ccc(F)cc1)c(O)c2=O
2000

----------
Consider the following compounds; for each one, report its log10 of IC50.
# assay-details: Inhibition of recombinant HIV1 integrase strand transfer activity
Short version: log10 scale, IC50, nM.

// log10 of IC50 lookup, key: CC(c1nc(O)c(O)c(C(=O)NCc2ccc(F)cc2)n1)N(C)C (stereo unspecified)
2.00

// log10 of IC50 lookup, key: CN(C)S(=O)(=O)N(C)C1CCn2c1nc(C(=O)NCc1ccc(F)cc1)c(O)c2=O (racemic)
1.65

// log10 of IC50 lookup, key: CC(=O)N(C)C1CCn2c1nc(C(=O)NCc1ccc(F)cc1)c(O)c2=O (racemic)
0.95

// log10 of IC50 lookup, key: CN(C)S(=O)(=O)N(C)[C@H]1CCCn2c1nc(C(=O)NCc1ccc(F)cc1)c(O)c2=O
0.70

// log10 of IC50 lookup, key: CN(C(=O)CS(=O)(=O)N(C)C)[C@@H]1CCCn2c1nc(C(=O)NCc1ccc(F)cc1)c(O)c2=O
0.85

// log10 of IC50 lookup, key: CN(Cc1ccccc1)C1CCCn2c1nc(C(=O)NCc1ccc(F)cc1)c(O)c2=O (racemic)
0.60

// log10 of IC50 lookup, key: CN(C1CCCCn2c1nc(C(=O)NCc1ccc(F)cc1)c(O)c2=O)S(C)(=O)=O (racemic)
1.20

// log10 of IC50 lookup, key: CN1CCOCC1c1nc(O)c(O)c(C(=O)NCc2ccc(F)cc2)n1 (stereo unspecified)
1.00

// log10 of IC50 lookup, key: O=C(NCc1ccc(F)cc1)c1ncnc(O)c1O
1.78

// log10 of IC50 lookup, key: O=C(NCc1ccc(F)cc1)c1nc2n(c(=O)c1O)CCCCC2N1CCOCC1 (racemic)
1.79

// log10 of IC50 lookup, key: CN(C)C1CCn2c1nc(C(=O)NCc1ccc(F)cc1)c(O)c2=O (racemic)
0.85

// log10 of IC50 lookup, key: CN(C(=O)C(F)F)C1CCCn2c1nc(C(=O)NCc1ccc(F)cc1)c(O)c2=O (racemic)
1.26

// log10 of IC50 lookup, key: CN(C)C1CCCCn2c1nc(C(=O)NCc1ccc(F)cc1)c(O)c2=O (racemic)
2.74

// log10 of IC50 lookup, key: CN(C(=O)CS(=O)(=O)N(C)C)C1CCCn2c1nc(C(=O)NCc1ccc(F)cc1)c(O)c2=O (racemic)
0.95

// log10 of IC50 lookup, key: CN(C)S(=O)(=O)N(C)C1CCCn2c1nc(C(=O)NCc1ccc(F)cc1)c(O)c2=O (racemic)
0.70

// log10 of IC50 lookup, key: O=C(NCc1ccc(F)cc1)c1nc2n(c(=O)c1O)CCCC2N1CCCCC1 (racemic)
0.60

----------
# assay-details: Half life in rhesus monkey at 2 mg/kg, iv
# Type: ADME, organism-based, Macaca mulatta
# Design: dose 2 mg/kg, route intravenous
# condition-details: in vivo
parameter: half-life (h)
Give just the numeric value; h need not be written.

// half-life lookup, key: CN(C)C(=O)C(=O)N(C)[C@H]1CCCCn2c1nc(C(=O)NCc1ccc(F)cc1)c(O)c2=O
2.6

----------
parameter: IC50 (µM)
Give just the numeric value; µM need not be written.

Kindly state the measured IC50 obtained for CN(C)C(=O)C(=O)N(C)[C@H]1CCCCn2c1nc(C(=O)NCc1ccc(F)cc1)c(O)c2=O with Cytochrome P450 2C9 (Homo sapiens, UniProt P11712).
Sequence (P11712 whole entry): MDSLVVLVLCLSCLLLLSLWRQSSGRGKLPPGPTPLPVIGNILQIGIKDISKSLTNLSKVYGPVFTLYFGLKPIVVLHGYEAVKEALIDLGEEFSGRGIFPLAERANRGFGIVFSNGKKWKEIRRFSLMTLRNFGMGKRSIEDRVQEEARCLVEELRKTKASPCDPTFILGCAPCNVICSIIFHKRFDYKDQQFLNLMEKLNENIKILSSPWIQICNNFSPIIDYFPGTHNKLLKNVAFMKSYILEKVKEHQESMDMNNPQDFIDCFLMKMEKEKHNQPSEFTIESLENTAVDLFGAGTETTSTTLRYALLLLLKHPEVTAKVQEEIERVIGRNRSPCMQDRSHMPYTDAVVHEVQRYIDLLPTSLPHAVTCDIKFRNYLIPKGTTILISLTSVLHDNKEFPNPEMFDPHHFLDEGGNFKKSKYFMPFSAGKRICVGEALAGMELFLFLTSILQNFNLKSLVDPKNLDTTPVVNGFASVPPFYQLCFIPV
75

----------
Consider the following compounds; for each one, report its Stability.
# System: Liver
# assay-details: Metabolic stability in dog liver microsomes in presence of UDPGA
# Assay type: ADME, Canis lupus familiaris, Microsome
Give just the numeric value; %/hr need not be written.

// Stability lookup, key: CN(C(=O)CS(=O)(=O)N(C)C)[C@H]1CCCn2c1nc(C(=O)NCc1ccc(F)cc1)c(O)c2=O
24

// Stability lookup, key: Cc1nn(C)c(C)c1S(=O)(=O)N(C)C1CCCn2c1nc(C(=O)NCc1ccc(F)cc1)c(O)c2=O (racemic)
78

// Stability lookup, key: CN(C)S(=O)(=O)N(C)[C@@H]1CCCn2c1nc(C(=O)NCc1ccc(F)cc1)c(O)c2=O
46

// Stability lookup, key: CN(C1CCCn2c1nc(C(=O)NCc1ccc(F)cc1)c(O)c2=O)S(C)(=O)=O (racemic)
29
